Target of assay: 5-hydroxytryptamine receptor 1D (Homo sapiens)
Sequence (P28221 whole entry): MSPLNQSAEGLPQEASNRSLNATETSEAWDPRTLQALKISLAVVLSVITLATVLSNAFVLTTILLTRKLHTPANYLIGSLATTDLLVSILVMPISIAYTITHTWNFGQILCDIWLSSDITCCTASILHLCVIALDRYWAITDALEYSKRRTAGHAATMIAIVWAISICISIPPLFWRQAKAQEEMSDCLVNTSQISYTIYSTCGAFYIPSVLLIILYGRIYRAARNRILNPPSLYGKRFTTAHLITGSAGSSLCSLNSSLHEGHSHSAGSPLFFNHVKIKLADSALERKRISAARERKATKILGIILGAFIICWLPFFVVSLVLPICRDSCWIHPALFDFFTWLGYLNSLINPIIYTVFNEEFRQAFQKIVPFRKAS
Test: Inverse agonist activity at human recombinant 5-HT1D receptor expressed in CHO cells by [S35]GTPgammaS binding assay
Format: functional, cell-based
Calls of active or inactive are those of the source. No cut-off for these calls is given here.

{"Smi": "CCC(=O)Nc1cccc(CCN2CCN(c3cccc4nc(C)ccc34)CC2)c1", "Target of assay": "5-hydroxytryptamine receptor 1D (Homo sapiens)", "Activity": "Active"}
{"Smi": "Cc1ccc2c(N3CCN(CCc4cccc(NC(=O)C(C)C)c4)CC3)cccc2n1", "Target of assay": "5-hydroxytryptamine receptor 1D (Homo sapiens)", "Activity": "Active"}
{"Smi": "Cc1ccc2c(N3CCN(CCc4cccc(N5CCOC5=O)c4)CC3)cccc2n1", "Target of assay": "5-hydroxytryptamine receptor 1D (Homo sapiens)", "Activity": "Active"}
